system: Osteoblasts (Calvarial cells); details: ICR, mouse, 72 h, 1 μM
# Cell viability (%) Calvarial cell listing for each entry below

>  <smiles.string>
CC(C)CNc1ccc([N+](=O)[O-])c(Nc2ccc(C(C)(C)C)cc2)n1

>  <Cell viability (%) Calvarial cell>
91

$$$$
>  <smiles.string>
Nc1cccc(Nc2nc(N3CCC(N)CC3)ccc2[N+](=O)[O-])c1

>  <Cell viability (%) Calvarial cell>
99

$$$$
>  <smiles.string>
CCCCNc1ccc([N+](=O)[O-])c(Nc2ccc(-c3csc(C4CCCCC4)n3)cc2)n1

>  <Cell viability (%) Calvarial cell>
102

$$$$
>  <smiles.string>
CC(C)(C)Nc1ccc([N+](=O)[O-])c(Nc2ccc(N3CCOCC3)cc2)n1

>  <Cell viability (%) Calvarial cell>
90

$$$$
>  <smiles.string>
CC(C)c1nccn1-c1ccc([N+](=O)[O-])c(Nc2ccc(C(C)(C)C)cc2)n1

>  <Cell viability (%) Calvarial cell>
118

$$$$
>  <smiles.string>
CC(C)(C)c1ccc(Nc2nc(NCc3cccnc3)ccc2[N+](=O)[O-])cc1

>  <Cell viability (%) Calvarial cell>
104

$$$$
>  <smiles.string>
COc1ccc(Nc2nc(N3CCN(C)CC3)ccc2[N+](=O)[O-])cc1

>  <Cell viability (%) Calvarial cell>
90

$$$$
>  <smiles.string>
CNc1ccc([N+](=O)[O-])c(Nc2ccc(C#N)cc2)n1

>  <Cell viability (%) Calvarial cell>
89

$$$$
>  <smiles.string>
CC(C)Nc1ccc([N+](=O)[O-])c(Nc2ccc(N)cc2)n1

>  <Cell viability (%) Calvarial cell>
107

$$$$
>  <smiles.string>
COc1ccc(Nc2nc(NCCCn3ccnc3)ccc2[N+](=O)[O-])cc1

>  <Cell viability (%) Calvarial cell>
101

$$$$
>  <smiles.string>
O=[N+]([O-])c1ccc(NCCCn2ccnc2)nc1Nc1ccc(-n2ccnc2)cc1

>  <Cell viability (%) Calvarial cell>
93

$$$$
>  <smiles.string>
CC(C)CNc1ccc([N+](=O)[O-])c(Nc2ccc(-n3ccnc3)cc2)n1

>  <Cell viability (%) Calvarial cell>
96

$$$$
>  <smiles.string>
CC(C)(C)c1ccc(Nc2nc(N3CCC(N)CC3)ccc2[N+](=O)[O-])cc1

>  <Cell viability (%) Calvarial cell>
114

$$$$
>  <smiles.string>
CC(=O)c1cccc(Nc2nc(N3CCOCC3)ccc2[N+](=O)[O-])c1

>  <Cell viability (%) Calvarial cell>
97

$$$$
>  <smiles.string>
CNc1ccc([N+](=O)[O-])c(Nc2ccc(N3CCOCC3)cc2)n1

>  <Cell viability (%) Calvarial cell>
100

$$$$
>  <smiles.string>
CNc1ccc([N+](=O)[O-])c(Nc2ccc(-c3csc(C4CCCCC4)n3)cc2)n1

>  <Cell viability (%) Calvarial cell>
101

$$$$
>  <smiles.string>
COc1ccc(Nc2nc(N3CCNCC3)ccc2[N+](=O)[O-])cc1

>  <Cell viability (%) Calvarial cell>
97

$$$$
>  <smiles.string>
CNc1ccc([N+](=O)[O-])c(Nc2ccc(N)cc2)n1

>  <Cell viability (%) Calvarial cell>
103

$$$$
>  <smiles.string>
Cc1nc(-c2ccc(Nc3nc(N4CCC(N)CC4)ccc3[N+](=O)[O-])cc2)cs1

>  <Cell viability (%) Calvarial cell>
35

$$$$
>  <smiles.string>
COc1ccc(Nc2nc(-n3ccnc3C(C)C)ccc2[N+](=O)[O-])cc1

>  <Cell viability (%) Calvarial cell>
90

$$$$
>  <smiles.string>
CNc1ccc([N+](=O)[O-])c(Nc2ccc(F)c(F)c2)n1

>  <Cell viability (%) Calvarial cell>
121

$$$$
>  <smiles.string>
CC(C)CNc1ccc([N+](=O)[O-])c(Nc2ccc(N3CCOCC3)cc2)n1

>  <Cell viability (%) Calvarial cell>
112

$$$$
>  <smiles.string>
COc1ccc(Nc2nc(NC(C)C)ccc2[N+](=O)[O-])cc1

>  <Cell viability (%) Calvarial cell>
100

$$$$
>  <smiles.string>
CC(C)(C)c1ccc(Nc2nc(NCc3ccncc3)ccc2[N+](=O)[O-])cc1

>  <Cell viability (%) Calvarial cell>
96

$$$$
>  <smiles.string>
CNc1ccc([N+](=O)[O-])c(Nc2ccc(-n3ccnc3)cc2)n1

>  <Cell viability (%) Calvarial cell>
111

$$$$
>  <smiles.string>
N#Cc1cccc(Nc2nc(NCCCn3ccnc3)ccc2[N+](=O)[O-])c1

>  <Cell viability (%) Calvarial cell>
115

$$$$
>  <smiles.string>
Nc1ccc(Nc2nc(N3CCC(N)CC3)ccc2[N+](=O)[O-])cc1

>  <Cell viability (%) Calvarial cell>
102

$$$$
>  <smiles.string>
CC(C)(C)c1ccc(Nc2nc(N3CCOCC3)ccc2[N+](=O)[O-])cc1

>  <Cell viability (%) Calvarial cell>
101

$$$$
>  <smiles.string>
CC(=O)c1cccc(Nc2nc(NC(C)(C)C)ccc2[N+](=O)[O-])c1

>  <Cell viability (%) Calvarial cell>
97

$$$$
>  <smiles.string>
Cc1nc(-c2ccc(Nc3nc(N4CCC(O)CC4)ccc3[N+](=O)[O-])cc2)cs1

>  <Cell viability (%) Calvarial cell>
106

$$$$
>  <smiles.string>
CC(=O)c1cccc(Nc2nc(NC(C)C)ccc2[N+](=O)[O-])c1

>  <Cell viability (%) Calvarial cell>
114

$$$$
